molecular target: canine TRPM8 (Canis lupus familiaris); construct: expressed in transfected cells; assay: In vitro canine TRPM8 functional assay (Ca2+-sensitive dye, FLIPR/FDSS, icilin activation); type: cell-based; settings: HEK293 cells expressing canine TRPM8, icilin activation; eight-point dose-response; read-out: IC50
assay.metric: pIC50
A value of pIC50 is the negative decimal logarithm of a concentration given in moles per litre.

// worked examples, pIC50 included
molecule="CC(C)OP(=O)(OC(C)C)C(Cc1cccc(F)c1)c1cc2ccccc2s1 (centres unmarked)" assay_metric=pIC50 result_value=6.47
molecule="CC(C)OP(=O)(OC(C)C)C(Cc1ccc(F)c(Cl)c1)c1sc2ccccc2c1Br (racemic)" assay_metric=pIC50 result_value=7.68
molecule="CC(C)OP(=O)(OC(C)C)C(Cc1cccc(SC(F)(F)F)c1)c1sc2ccccc2c1Br (centres unmarked)" assay_metric=pIC50 result_value=7.32
molecule="CCOP(=O)(OCC)C(Cc1ccc(C(F)(F)F)c(F)c1)c1sc2ccccc2c1Cl (centres unmarked)" assay_metric=pIC50 result_value=6.94
molecule="CCOP(=O)(OCC)C(Cc1cc(Cl)ccc1F)c1sc2ccccc2c1Cl (racemic)" assay_metric=pIC50 result_value=7.15
molecule="CCOP(=O)(OCC)C(Cc1ccc(C(F)(F)F)cc1)c1sc2ccccc2c1Cl (racemic)" assay_metric=pIC50 result_value=6.90

Give reported pIC50 value for CCOP(=O)(OCC)C(Cc1ccccc1C(F)(F)F)c1cc2ccccc2s1 (centres unmarked)
6.12

Give reported pIC50 value for CC(C)OP(=O)(OC(C)C)C(Cc1ccc(F)cc1C(F)(F)F)c1sc2ccccc2c1Cl (centres unmarked)
7.10

====

molecular target: canine TRPM8 (Canis lupus familiaris, UniProt Q1A7N1); construct: expressed in transfected cells; test: In vitro canine TRPM8 functional assay (Ca2+-sensitive dye, FLIPR/FDSS, icilin activation); assay type: cell-based; details: 0.5 μM compound; HEK293 cells expressing canine TRPM8, icilin activation
Sequence (Q1A7N1 1-1104): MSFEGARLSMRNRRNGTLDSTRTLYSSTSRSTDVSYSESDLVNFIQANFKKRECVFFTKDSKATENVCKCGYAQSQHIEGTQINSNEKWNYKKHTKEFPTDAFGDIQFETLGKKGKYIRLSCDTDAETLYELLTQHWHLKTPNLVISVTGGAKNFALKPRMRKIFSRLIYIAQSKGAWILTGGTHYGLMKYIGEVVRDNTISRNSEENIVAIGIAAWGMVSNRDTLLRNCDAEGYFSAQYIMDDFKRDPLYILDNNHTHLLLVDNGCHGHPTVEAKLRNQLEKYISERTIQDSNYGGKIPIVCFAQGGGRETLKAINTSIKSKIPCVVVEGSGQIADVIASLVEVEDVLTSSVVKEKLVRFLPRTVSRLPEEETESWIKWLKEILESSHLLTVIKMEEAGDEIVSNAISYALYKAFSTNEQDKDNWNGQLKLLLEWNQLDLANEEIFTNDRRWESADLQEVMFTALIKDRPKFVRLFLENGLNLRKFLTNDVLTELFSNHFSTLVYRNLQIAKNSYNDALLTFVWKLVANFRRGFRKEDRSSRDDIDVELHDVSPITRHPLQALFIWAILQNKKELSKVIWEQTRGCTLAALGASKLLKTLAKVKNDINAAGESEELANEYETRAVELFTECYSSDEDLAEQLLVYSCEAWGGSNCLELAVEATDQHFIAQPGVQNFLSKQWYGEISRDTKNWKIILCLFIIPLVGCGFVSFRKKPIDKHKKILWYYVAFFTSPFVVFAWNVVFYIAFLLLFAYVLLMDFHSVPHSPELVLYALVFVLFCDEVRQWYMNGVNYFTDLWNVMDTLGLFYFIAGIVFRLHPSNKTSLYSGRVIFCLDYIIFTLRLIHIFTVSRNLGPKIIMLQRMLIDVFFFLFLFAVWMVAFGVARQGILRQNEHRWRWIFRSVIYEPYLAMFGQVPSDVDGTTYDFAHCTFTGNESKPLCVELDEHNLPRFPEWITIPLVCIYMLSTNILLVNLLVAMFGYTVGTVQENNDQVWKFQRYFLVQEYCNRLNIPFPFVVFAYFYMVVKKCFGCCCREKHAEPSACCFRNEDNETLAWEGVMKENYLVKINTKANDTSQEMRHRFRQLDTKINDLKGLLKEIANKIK
assay.metric: % I (0.5 μM) (%)
Output spec: scalar in %, unitless text.

Give reported % I (0.5 μM) value for CCOP(=O)(OCC)C(Cc1ccc(F)c(F)c1)c1sc2ccccc2c1-c1ccccc1O (racemic) [Cpd 215]
101

Give reported % I (0.5 μM) value for CCOP(=O)(OCC)C(Cc1ccccc1C(F)(F)F)c1sc2ccccc2c1Br (centres unmarked) [Cpd 260]
103

Give reported % I (0.5 μM) value for CC(C)OP(=O)(OC(C)C)C(Cc1cc(C(F)(F)F)cc(C(F)(F)F)c1)c1sc2ccccc2c1Cl (racemic) [Cpd 171]
95

====

target: canine TRPM8 (Canis lupus familiaris); construct: expressed in transfected cells; assay: In vitro canine TRPM8 functional assay (Ca2+-sensitive dye, FLIPR/FDSS, icilin activation); type: cell-based; details: HEK293 cells expressing canine TRPM8, icilin activation; eight-point dose-response; read-out: IC50
assay.metric: pIC50
A value of pIC50 is the negative decimal logarithm of a concentration given in moles per litre.

// worked examples, pIC50 included
compound="CC(C)OP(=O)(OC(C)C)C(Cc1ccc(F)c(C(F)(F)F)c1)c1c(Br)c2ccccc2n1S(C)(=O)=O (centres unmarked)" study_system="canine TRPM8 (Canis lupus familiaris)" assay_metric=pIC50 result_value=6.86
compound="CCCCOP(=O)(OCCCC)C(Cc1ccc(F)c(F)c1)c1sc2ccccc2c1Br (centres unmarked)" study_system="canine TRPM8 (Canis lupus familiaris)" assay_metric=pIC50 result_value=7.15
compound="CCOP(=O)(OCC)C(Cc1cccc(OC(F)(F)F)c1)c1sc2ccccc2c1Cl (centres unmarked)" study_system="canine TRPM8 (Canis lupus familiaris)" assay_metric=pIC50 result_value=6.69

Give reported pIC50 value for CCOP(=O)(Cc1cc2ccccc2s1)OCc1ccc(F)cc1 (centres unmarked)
5.89

Give reported pIC50 value for CC(C)OP(=O)(OC(C)C)C(Cc1ccc(F)c(C(F)(F)F)c1)c1cc2ccccc2s1 (centres unmarked)
6.41

Give reported pIC50 value for CC(C)OP(=O)(OC(C)C)C(Br)(Cc1ccc(F)c(F)c1)c1sc2ccccc2c1Br (centres unmarked)
6.24

Give reported pIC50 value for CC(C)OP(=O)(OC(C)C)C(Cc1ccc(Cl)cc1)c1sc2ccccc2c1Br (racemic)
7.19

Give reported pIC50 value for CCOP(=O)(OCC)C(Cc1ccccc1Br)c1sc2ccccc2c1C (centres unmarked)
6.48

====

Below, each entry is listed with its recorded % I (1 μM).
target: canine TRPM8 (Canis lupus familiaris, UniProt Q1A7N1); construct: expressed in transfected cells; assay: In vitro canine TRPM8 functional assay (Ca2+-sensitive dye, FLIPR/FDSS, icilin activation); format: cell-based; details: 1 μM compound; HEK293 cells expressing canine TRPM8, icilin activation
Output spec: scalar in %, unitless text.

molecule="CCOP(=O)(OCC)C(Cc1ccc(F)c(F)c1)c1oc2ccccc2c1Br (centres unmarked)" assay_metric="% I (1 μM)" units_label=% result_value=103
molecule="CCOP(=O)(OCC)C(Cc1cc2ccccc2s1)c1cc2ccccc2s1 (centres unmarked)" assay_metric="% I (1 μM)" units_label=% result_value=89
molecule="CC(C)OP(=O)(OC(C)C)C(Cc1ccc(F)cc1)c1sc2ccccc2c1Br (centres unmarked)" assay_metric="% I (1 μM)" units_label=% result_value=100
molecule="CCOP(=O)(OCC)C(Cc1ccc(F)cc1Cl)c1cc2ccccc2s1 (centres unmarked)" assay_metric="% I (1 μM)" units_label=% result_value=79

Please find the next molecule below.
Give reported % I (1 μM) value for CCOP(=O)(OCC)C(Cc1ccccc1Cl)c1sc2ccccc2c1C (centres unmarked)
100

====

target: canine TRPM8 (Canis lupus familiaris, UniProt Q1A7N1); construct: expressed in transfected cells; assay: In vitro canine TRPM8 functional assay (Ca2+-sensitive dye, FLIPR/FDSS, icilin activation); assay type: cell-based; conditions: HEK293 cells expressing canine TRPM8, icilin activation; eight-point dose-response; read-out: IC50
Below, each entry is listed with its recorded IC50.
Output spec: scalar in nM, unitless text.

// worked examples, IC50 included
molecule="CCOP(=O)(OCC)C(Cc1cc(OC)c(Cl)cc1F)c1sc2ccccc2c1Br (racemic) [Cpd 164]" study_system="canine TRPM8 (Canis lupus familiaris, UniProt Q1A7N1)" units_label=nM result_value=82
molecule="CCOP(=O)(CC(C)C)C(Cc1ccc(F)c(F)c1)c1sc2ccccc2c1C (centres unmarked) [Cpd 6]" study_system="canine TRPM8 (Canis lupus familiaris, UniProt Q1A7N1)" units_label=nM result_value=28
molecule="CCOP(=O)(OCC)C(Cc1ccc(OC)c(C(F)(F)F)c1)c1sc2ccccc2c1Cl (racemic) [Cpd 292]" study_system="canine TRPM8 (Canis lupus familiaris, UniProt Q1A7N1)" units_label=nM result_value=216
molecule="CCOP(=O)(OCC)C(Cc1ccc(F)c(F)c1)c1oc2cccc(F)c2c1Br (racemic) [Cpd 206]" study_system="canine TRPM8 (Canis lupus familiaris, UniProt Q1A7N1)" units_label=nM result_value=98

Give reported IC50 value for CC(C)OP(=O)(OC(C)C)C(Cc1ccc(F)c(C(F)(F)F)c1)c1sc2cccc(F)c2c1Br (racemic) [Cpd 222]
33

Give reported IC50 value for CC(C)OP(=O)(OC(C)C)C(Cc1ccc(F)c(F)c1)c1cc2ccccc2o1 (centres unmarked) [Cpd 120]
390

Give reported IC50 value for CC(C)OP(=O)(OC(C)C)C(Cc1ccc(C(F)(F)F)cc1F)c1sc2ccccc2c1Br (racemic) [Cpd 289]
51

Give reported IC50 value for CCOP(=O)(OCC)C(Cc1cccc(OC(F)(F)F)c1)c1sc2ccccc2c1C (centres unmarked) [Cpd 57]
260

Give reported IC50 value for CCOP(=O)(OCC)C(Cc1ccc2ccccc2c1)c1sc2ccccc2c1C (centres unmarked) [Cpd 46]
167

Give reported IC50 value for CC(C)OP(=O)(OC(C)C)C(Cc1ccc(F)c(F)c1)c1cc2ccccc2s1 (centres unmarked) [Cpd 63]
300

====

target: canine TRPM8 (Canis lupus familiaris, UniProt Q1A7N1); construct: expressed in transfected cells; experiment: In vitro canine TRPM8 functional assay (Ca2+-sensitive dye, FLIPR/FDSS, icilin activation); format: cell-based; settings: 1 μM compound; HEK293 cells expressing canine TRPM8, icilin activation
assay.metric: % I (1 μM) (%)
Output spec: scalar in %, unitless text.

// worked examples, % I (1 μM) included
compound="CC(C)OP(=O)(OC(C)C)C(Cc1cccc(F)c1F)c1sc2ccccc2c1Br (stereo not shown)" result_value=103
compound="CCOP(=O)(OCC)C(Cc1c(Cl)ccc(C)c1F)c1sc2ccccc2c1C (stereo not shown)" result_value=100
compound="CCOP(=O)(OCC)C(Cc1ccccc1C)c1cc2ccccc2s1 (stereo not shown)" result_value=91

Provide % I (1 μM), system canine TRPM8 (Canis lupus familiaris, UniProt Q1A7N1), entry CCOP(=O)(OCC)C(Cc1ccccc1OC(F)(F)F)c1sc2ccccc2c1C (stereo not shown)
100

Data origin, for the record: patent US20080287398A1
